Test system: D-hydantoinase
Test: Effects of metal ions on D-hydantoinase activity
Format: biochemical, Bacillus circulans
Settings: ion 500 μM; percentage based on activity without adding ions
Metric: Relative activity (%)
One number for each entry, in %.

Please review the entries below; each comes with its answer.
> print(dat)
              sample.smiles  measured.result
1  O=S(=O)([O-])[O-].[Zn+2]               50
2              [Cl][Mn][Cl]              773
3              [Cl][Cu][Cl]               78
4  O=S(=O)([O-])[O-].[Fe+2]             87.5
5        [Cl-].[Cl-].[Mg+2]               91
6        [Cl][Fe]([Cl])[Cl]             87.5

Respectfully, I request Relative activity for each entry included below.
1. [Ca+2].[Cl-].[Cl-]
2. O=S(=O)([O-])[O-].[Ni+2]
3. O=S(=O)([O-])[O-].[Mg+2]

Solution:
1. 88
2. 139
3. 94

* * *

System: D-hydantoinase
Experiment: Effects of metal ions on D-hydantoinase activity
Format: biochemical, Bacillus circulans
Conditions: ion 500 μM, 15 min at room temperature; 10 mM D,L-p-HPH in 50 mM Tris-HCl pH 8.0
Metric: log10 of Specific activity (log10 of the value in unit/mg)
Each number you see is log10 of Specific activity, and the unit inside the log is unit/mg.

> print(dat)
                           compound  measured.result
1        [Cl-].[Cl-].[Mg+2] [MgCl2]             0.42
2  O=S(=O)([O-])[O-].[Mg+2] [MgSO4]             0.43
3              [Cl][Mn][Cl] [MnCl2]             1.35
4  O=S(=O)([O-])[O-].[Zn+2] [ZnSO4]             0.16

Respectfully, I request log10 of Specific activity for each entry included below.
1. O=S(=O)([O-])[O-].[Fe+2] [FeSO2]
2. [Ca+2].[Cl-].[Cl-] [CaCl2]
3. [Cl][Cu][Cl] [CuCl2]
4. O=S(=O)([O-])[O-].[Ni+2] [NiSO4]
5. [Cl][Fe]([Cl])[Cl] [FeCl3]

Solution:
[0.40, 0.40, 0.35, 0.60, 0.40]
